Cited source for all entries: patent US20110039763A1

- System: microorganisms
- PROTOCOL TEXT: Morphology, biofilm and growth disrupting peptides (Table 5)
- Format: cell-based
- Parameters: key: A: Peptide aggregates; B: Less hyphal formation; Clumps; Diffuse clumps and small polyps; F: Diffuse growth; H: Thin; I: Growth inhibition; Microcolony formation; Rippled; Small polyps; Thick; W: Halo formation on top, microlonies on bottom
- CONDITION DESCRIPTION: P. aeruginosa
OUTCOME MEASURE: Organism, effect: P. aeruginosa

SUBSTANCE | RESULT
PF-140: peptide having multiple activities (chain 1 FHRRVIRASEWALTTRSFSTPLRSAAR; chain 2 FHRRVIRASEWALTTRSFSTPLRSAAR; Peptide with targeting and/or antimicrobial activity) | P. aeruginosa (A)
PF-411: peptide having multiple activities (chain 1 WVAVAILLNIALQTQLT; chain 2 WVAVAILLNIALQTQLT; Peptide with targeting and/or antimicrobial activity) | P. aeruginosa (A)
